B1: Intersectin-1, residues 909 to 971; numbered along this chain, Q15811 (parent)
chain: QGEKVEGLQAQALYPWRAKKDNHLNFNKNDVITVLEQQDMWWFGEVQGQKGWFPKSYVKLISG

variants of: B1; assay: abundance fitness (aPCA) (normalised: wild type 0, dead -1); higher = more abundant; growth selection in yeast, the domain comes from the species named; settings: Homo sapiens
Listed next: entries and their corresponding abundance fitness.

>  <mutant code>
D30K

>  <abundance fitness>
-0.783

$$$$
>  <mutant code>
Q37F

>  <abundance fitness>
-0.078

$$$$
>  <mutant code>
Q37G

>  <abundance fitness>
-0.085

$$$$
>  <mutant code>
S56P

>  <abundance fitness>
-0.298

$$$$
>  <mutant code>
D30M

>  <abundance fitness>
-0.252

$$$$
>  <mutant code>
Y14D

>  <abundance fitness>
-0.104

$$$$
>  <mutant code>
M40V

>  <abundance fitness>
-0.164

$$$$
>  <mutant code>
S56F

>  <abundance fitness>
-0.239

$$$$
>  <mutant code>
V34C

>  <abundance fitness>
-0.427

$$$$
>  <mutant code>
V58F

>  <abundance fitness>
-0.821

$$$$
>  <mutant code>
Q37N

>  <abundance fitness>
-0.279

$$$$
>  <mutant code>
D39T

>  <abundance fitness>
-0.009

$$$$
>  <mutant code>
S56D

>  <abundance fitness>
-0.1

$$$$
>  <mutant code>
K19A

>  <abundance fitness>
-0.018

$$$$
>  <mutant code>
Q11H

>  <abundance fitness>
-0.131

$$$$
>  <mutant code>
E45A

>  <abundance fitness>
-0.245

$$$$
>  <mutant code>
I32T

>  <abundance fitness>
-0.97

$$$$
>  <mutant code>
A10G

>  <abundance fitness>
-0.212

$$$$
>  <mutant code>
L13G

>  <abundance fitness>
-0.709

$$$$
>  <mutant code>
Q49I

>  <abundance fitness>
-0.208

$$$$
>  <mutant code>
F43R

>  <abundance fitness>
-0.328

$$$$
>  <mutant code>
T33P

>  <abundance fitness>
-0.897

$$$$
>  <mutant code>
N27T

>  <abundance fitness>
-0.307

$$$$
>  <mutant code>
G63I

>  <abundance fitness>
-0.151

$$$$
>  <mutant code>
A18E

>  <abundance fitness>
-0.234

$$$$
